measured.on: West Nile Virus NS3 protease (West Nile virus, UniProt P06935, DELINS1467-1501GGGGSGGGG)
Construct: truncated form of West Nile NS3 protease (residues 1-186); purchased AnaSep (AnaSpec), San Jose, Calif., USA
experimental.protocol: West Nile Virus NS3 protease inhibition assay (SensoLyte 440 kit)
Format: biochemical
assay.context: LOPAC compounds clustering with fraction 2
experimental.readout: inhibition of the WNV NS protease (in words)

Below, 4 molecules whose answers are already recorded.
{"columns": ["molecule", "result.value"],
 "data": [
  ["Clc1nccc2c1ccc1ccccc12", "no inhibition"],
  ["CCN1/C(=C/C(C)=O)Sc2ccc(OC)cc21", "no inhibition"],
  ["C[C@]12C[C@H](O)[C@H]3[C@@H](CCC4=CC(=O)CC[C@@]43C)[C@@H]1CC[C@@H]2C(=O)CO (single isomer, unassigned)", "no inhibition"],
  ["O.O.O=c1c(O)c(-c2ccc(O)c(O)c2)oc2cc(O)cc(O)c12 [Quercetin dehydrate]", "no inhibition"]
]}

Challenge: Report measured inhibition of the WNV NS protease (in words); entry is C[C@@H]1C(=O)NC2=Nc3cccc(Cl)c3CN21
Response given: no inhibition
